Target: T1, DFNB31_3, Q9P202
T1 sequence (Q9P202 811-907, limits assumed, looked up): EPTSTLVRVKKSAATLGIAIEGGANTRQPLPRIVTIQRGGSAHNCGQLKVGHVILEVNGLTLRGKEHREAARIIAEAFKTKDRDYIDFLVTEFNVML
Assay: holdup assay
Parameters: key: below the threshold = too weak to quantify, mostly under pKd 3.1 to 4
Conditions: plain residues with an end cap or a label only (N-terminal biotin on a linker: ado-ado)
The following binders are shown together with reported pKd values.
Please give the numeric answer without any surrounding text.

Binder	Reported Value
QSGLYESEEL [MYOT, Q9UBF9]	3.5
AAVENKVTDL [PLXNB1, O43157]	3.94
GTGYDRKDYV [CLDN3, O15551]	4.06

We now examine a further binder.
pKd for PYPTADHMLA [JUP, P14923] ? 3.83
